Test system: senescent IMR90 ER:RAS cells (4-OHT-induced)
Experiment: Nuclei count (Hoechst, high content imaging) senolytic assay, oncogene-induced senescence (OIS) model, senescent cells
Format: cell-based, human
Conditions: Homo sapiens, IMR-90, 72 h, Senescent, log (dose) [M] -7, 72 h, mean n=3 (Fig 3C); read-out: Mean % Cell Survival
Where a name gives a salt, the structure may show the parent alone.
measurement label: viability at 0.1 µM (%)

{"molecule": "CO[C@H]1C[C@@H]2CC[C@@H](C)[C@@](O)(O2)C(=O)C(=O)N2CCCC[C@H]2C(=O)O[C@H]([C@H](C)C[C@@H]2CC[C@@H](O)[C@H](OC)C2)CC(=O)[C@H](C)/C=C(\\C)[C@@H](O)[C@@H](OC)C(=O)[C@H](C)C[C@H](C)/C=C/C=C/C=C/1C [Rapamycin, rapamycin, reference compound]", "measurement units": "%", "data value": 92.6}
{"molecule": "COC[C@H]1C[C@@H](c2nc(-c3ccc4c(c3)COc3cc5c(ccc6nc([C@@H]7CC[C@H](C)N7C(=O)[C@@H](NC(=O)OC)C(C)C)[nH]c65)cc3-4)c[nH]2)N(C(=O)[C@H](NC(=O)OC)c2ccccc2)C1 [Velpatasvir, velpatasvir, reference compound]", "measurement units": "%", "data value": 88.6}
{"molecule": "CO[C@H]1C[C@@H]2CC[C@@H](C)[C@@](O)(O2)C(=O)C(=O)N2CCCC[C@H]2C(=O)O[C@H]([C@H](C)C[C@@H]2CC[C@@H](OCCO)[C@H](OC)C2)CC(=O)[C@H](C)/C=C(\\C)[C@@H](O)[C@@H](OC)C(=O)[C@H](C)C[C@H](C)/C=C/C=C/C=C/1C [Everolimus, everolimus, reference compound]", "measurement units": "%", "data value": 93.7}
{"molecule": "Cc1cnc(C(=O)N[C@H]2CCCCC/C=C\\[C@@H]3C[C@@]3(C(=O)NS(=O)(=O)C3CC3)NC(=O)[C@@H]3C[C@@H](Oc4nc5ccccc5c5ccccc45)CN3C2=O)cn1 [Paritaprevir, paritaprevir, reference compound]", "measurement units": "%", "data value": 79.8}
{"molecule": "COc1cc(O)c2c(=O)cc(-c3ccc(OC)c(-c4c(O)cc(O)c5c(=O)cc(-c6ccc(O)cc6)oc45)c3)oc2c1", "measurement units": "%", "data value": 105}
{"molecule": "COc1cc(/C=C/C(=O)O[C@H]2CC[C@]34C[C@]35CC[C@]3(C)[C@@H]([C@H](C)CCC=C(C)C)CC[C@@]3(C)[C@@H]5CC[C@H]4C2(C)C)ccc1O", "measurement units": "%", "data value": 132}
{"molecule": "CC[C@]1(O)C[C@@H]2CN(CCc3c([nH]c4ccccc34)[C@@](C(=O)OC)(c3cc4c(cc3OC)N(C)[C@H]3[C@@](O)(C(=O)OC)[C@H](OC(C)=O)[C@]5(CC)C=CCN6CC[C@]43[C@@H]65)C2)C1 [Vinblastine sulfate, vinblastine sulfate, reference compound]", "measurement units": "%", "data value": 73.9}
{"molecule": "O=c1c(O)c(-c2ccc(O)cc2)oc2c(O)c(O)cc(O)c12", "measurement units": "%", "data value": 95.7}

----------
Measured viability at 0.02188 µM, listed per entry.
Test system: non-senescent control IMR90 ER:RAS cells
Assay: Nuclei count (Hoechst, high content imaging) senolytic assay, OIS model, non-senescent control cells
Type: cell-based, human
Conditions: Homo sapiens, IMR-90, 72 h, Control, log (dose) [M] -7.66, 72 h, mean n=3 (Fig 3C); read-out: Mean % Cell Survival
measurement label: viability at 0.02188 µM (%)

{"compound": "CO[C@H]1C[C@@H]2CC[C@@H](C)[C@@](O)(O2)C(=O)C(=O)N2CCCC[C@H]2C(=O)O[C@H]([C@H](C)C[C@@H]2CC[C@H](n3cnnn3)[C@H](OC)C2)CC(=O)[C@H](C)/C=C(\\C)[C@@H](O)[C@@H](OC)C(=O)[C@H](C)C[C@H](C)/C=C/C=C/C=C/1C [Zotarolimus, zotarolimus, reference compound]", "measurement label": "viability at 0.02188 µM", "data value": 110}
{"compound": "COc1cc(O)c2c(=O)cc(-c3ccc(OC)c(-c4c(O)cc(O)c5c(=O)cc(-c6ccc(O)cc6)oc45)c3)oc2c1", "measurement label": "viability at 0.02188 µM", "data value": 88.8}
{"compound": "Cc1cc2c(C(C)C)c(O)c(O)c(C=O)c2c(O)c1-c1c(C)cc2c(C(C)C)c(O)c(O)c(C=O)c2c1O", "measurement label": "viability at 0.02188 µM", "data value": 121}
{"compound": "O=c1c(O)c(-c2ccc(O)cc2)oc2c(O)c(O)cc(O)c12", "measurement label": "viability at 0.02188 µM", "data value": 109}
{"compound": "COc1cc(/C=C/C(=O)O[C@H]2CC[C@]34C[C@]35CC[C@]3(C)[C@@H]([C@H](C)CCC=C(C)C)CC[C@@]3(C)[C@@H]5CC[C@H]4C2(C)C)ccc1O", "measurement label": "viability at 0.02188 µM", "data value": 118}

----------
Measured viability at 0.1 µM, listed per entry.
Tested on: non-senescent control IMR90 ER:RAS cells
Experiment: Nuclei count (Hoechst, high content imaging) senolytic assay, OIS model, non-senescent control cells
Type: cell-based, human
Settings: Homo sapiens, IMR-90, Control cells; log (dose) [M] -7; individual replicates; SUP FIG 4C; read-out: % Cell Survival

{"molecule": "Cc1c(-c2c(F)cc(C(N)=O)c3[nH]c4c(c23)CC[C@H](C(C)(C)O)C4)cccc1-n1c(=O)c2cccc(F)c2n(C)c1=O", "measurement units": "%", "viability at 0.1 µM": 107}
{"molecule": "CO[C@H]1C[C@@H]2CC[C@@H](C)[C@@](O)(O2)C(=O)C(=O)N2CCCC[C@H]2C(=O)O[C@H]([C@H](C)C[C@@H]2CC[C@@H](O)[C@H](OC)C2)CC(=O)[C@H](C)/C=C(\\C)[C@@H](O)[C@@H](OC)C(=O)[C@H](C)C[C@H](C)/C=C/C=C/C=C/1C [Rapamycin, rapamycin, reference compound]", "measurement units": "%", "viability at 0.1 µM": 91}
{"molecule": "Cc1cnc(C(=O)N[C@H]2CCCCC/C=C\\[C@@H]3C[C@@]3(C(=O)NS(=O)(=O)C3CC3)NC(=O)[C@@H]3C[C@@H](Oc4nc5ccccc5c5ccccc45)CN3C2=O)cn1 [Paritaprevir, paritaprevir, reference compound]", "measurement units": "%", "viability at 0.1 µM": 73.5}
{"molecule": "O=c1c(O)c(-c2ccc(O)cc2O)oc2cc(O)cc(O)c12", "measurement units": "%", "viability at 0.1 µM": 98.5}
{"molecule": "CO[C@H]1C[C@@H]2CC[C@@H](C)[C@@](O)(O2)C(=O)C(=O)N2CCCC[C@H]2C(=O)O[C@H]([C@H](C)C[C@@H]2CC[C@H](n3cnnn3)[C@H](OC)C2)CC(=O)[C@H](C)/C=C(\\C)[C@@H](O)[C@@H](OC)C(=O)[C@H](C)C[C@H](C)/C=C/C=C/C=C/1C [Zotarolimus, zotarolimus, reference compound]", "measurement units": "%", "viability at 0.1 µM": 91}
{"molecule": "O=c1oc2c(O)c(O)cc3c(=O)oc4c(O)c(O)cc1c4c23", "measurement units": "%", "viability at 0.1 µM": 103}

----------
System: non-senescent control A549 cells
Assay: Nuclei count senolytic assay, TIS model, non-senescent control cells
Type: cell-based, human
Conditions: Homo sapiens, A549; log (dose) [M] -5.33; Control cells; mean; read-out: Mean % Cell Survival
Structures can show the parent of a compound that is named as a salt.
measurement label: viability at 4.68 µM (%)

{"molecule": "O=c1c(O)c(-c2ccc(O)cc2)oc2c(O)c(O)cc(O)c12", "data value": 61.9}
{"molecule": "Cc1cc2c(C(C)C)c(O)c(O)c(C=O)c2c(O)c1-c1c(C)cc2c(C(C)C)c(O)c(O)c(C=O)c2c1O", "data value": 107}
{"molecule": "O=c1c(O)c(-c2ccc(O)cc2O)oc2cc(O)cc(O)c12", "data value": 98.9}
{"molecule": "Cc1c(-c2c(F)cc(C(N)=O)c3[nH]c4c(c23)CC[C@H](C(C)(C)O)C4)cccc1-n1c(=O)c2cccc(F)c2n(C)c1=O", "data value": 101}
{"molecule": "CC[C@]1(O)C[C@@H]2CN(CCc3c([nH]c4ccccc34)[C@@](C(=O)OC)(c3cc4c(cc3OC)N(C)[C@H]3[C@@](O)(C(=O)OC)[C@H](OC(C)=O)[C@]5(CC)C=CCN6CC[C@]43[C@@H]65)C2)C1 [Vinblastine sulfate, vinblastine sulfate, reference compound]", "data value": 46.3}
{"molecule": "CO[C@H]1C[C@@H]2CC[C@@H](C)[C@@](O)(O2)C(=O)C(=O)N2CCCC[C@H]2C(=O)O[C@H]([C@H](C)C[C@@H]2CC[C@H](n3cnnn3)[C@H](OC)C2)CC(=O)[C@H](C)/C=C(\\C)[C@@H](O)[C@@H](OC)C(=O)[C@H](C)C[C@H](C)/C=C/C=C/C=C/1C [Zotarolimus, zotarolimus, reference compound]", "data value": 92.5}
{"molecule": "O=c1cc(-c2ccc(O)cc2)oc2cc(O)c(O)c(O)c12", "data value": 112}
{"molecule": "Cc1cnc(C(=O)N[C@H]2CCCCC/C=C\\[C@@H]3C[C@@]3(C(=O)NS(=O)(=O)C3CC3)NC(=O)[C@@H]3C[C@@H](Oc4nc5ccccc5c5ccccc45)CN3C2=O)cn1 [Paritaprevir, paritaprevir, reference compound]", "data value": 93}
{"molecule": "CO[C@H]1C[C@@H]2CC[C@@H](C)[C@@](O)(O2)C(=O)C(=O)N2CCCC[C@H]2C(=O)O[C@H]([C@H](C)C[C@@H]2CC[C@@H](O)[C@H](OC)C2)CC(=O)[C@H](C)/C=C(\\C)[C@@H](O)[C@@H](OC)C(=O)[C@H](C)C[C@H](C)/C=C/C=C/C=C/1C [Rapamycin, rapamycin, reference compound]", "data value": 60.2}
{"molecule": "COc1cc(/C=C/C(=O)O[C@H]2CC[C@]34C[C@]35CC[C@]3(C)[C@@H]([C@H](C)CCC=C(C)C)CC[C@@]3(C)[C@@H]5CC[C@H]4C2(C)C)ccc1O", "data value": 35}
{"molecule": "O=c1oc2c(O)c(O)cc3c(=O)oc4c(O)c(O)cc1c4c23", "data value": 76.6}
{"molecule": "CO[C@H]1C[C@H](O[C@H]2CC[C@@]3(C)[C@H](CC[C@@H]4[C@@H]3CC[C@]3(C)[C@@H](C5=CC(=O)OC5)[C@@H](OC(C)=O)C[C@]43O)C2)O[C@@H](C)[C@@H]1O", "data value": 1.71}
{"molecule": "COc1cc(O)c2c(=O)cc(-c3ccc(OC)c(-c4c(O)cc(O)c5c(=O)cc(-c6ccc(O)cc6)oc45)c3)oc2c1", "data value": 65.7}
{"molecule": "CC1(C)CCC(c2ccc(Cl)cc2)=C(CN2CCN(c3ccc(C(=O)NS(=O)(=O)c4ccc(N[C@H](CCN5CCOCC5)CSc5ccccc5)c(S(=O)(=O)C(F)(F)F)c4)cc3)CC2)C1 [navitoclax, reference compound]", "data value": 105}
